Quick reference for normalized growth among some compounds
- Protocol summary: chemical genetic growth profiling, strain panel (AID 1159580);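 note: tested at 20 µM; growth read once vehicle control cultures reached saturation at 30 °C; 1 = growth at the plate median or of vehicle wells; lower values mean less growth of the strain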
- Study conditions: S. cerevisiae deletion strains, growth OD, locus YGL167C, strain pmr1, stronger effect = lower value
Among all 5,500 compounds or so, about 2,000 (36%) were called active. Inconclusive results (about 18%) are left out. The list shows a part of the results.
Reply: number alone, nothing else.

Below are worked cases with known answers.
Compound	normalized growth
CC1(C)CC[C@@]2(C(=O)O)C(C1)C1=CCC3[C@@]4(C)CC[C@H](O)C(C)(C)C4CC[C@@]3(C)[C@]1(C)C[C@@H]2O (some centres not stated)	1.01
CC(=O)/C=C\[C@@H]1[C@@]2(C)CCCC(C)(C)C2CC[C@@]1(C)O (some centres not stated)	0.971
COc1cc(N)c(Cl)cc1C(=O)NC1CCN(Cc2ccccc2)CC1	1

Query: Suppose we examine the compound C[C@H]1[C@H](C)CC[C@]2(CO)CC[C@]3(C)C(=CCC4[C@@]5(C)CC[C@H](O)C(C)(C)C5CC[C@]43C)[C@H]12 (some centres not stated) ; what normalized growth value has been reported?
Response: 0.996

Query: Suppose we examine the compound CC(=O)NC(C(=O)O)C(C)(C)SN=O (configuration not stated) ; what normalized growth value has been reported?
Response: 0.99

Query: Suppose we examine the compound C/C=C(/C)C(=O)O[C@@H]1[C@H](OC(C)=O)[C@@]2(CO)C(CC1(C)C)C1=CCC3[C@@]4(C)CC[C@H](O[C@@H]5O[C@H](C(=O)O)[C@@H](O[C@@H]6O[C@H](CO)[C@@H](O)[C@H](O)[C@H]6O)[C@H](O)[C@H]5O[C@@H]5O[C@H](CO)[C@@H](O)[C@H](O)[C@H]5O)[C@](C)(CO)C4CC[C@@]3(C)[C@]1(C)C[C@H]2O (some centres not stated) ; what normalized growth value has been reported?
Response: 0.987

Query: Suppose we examine the compound O=C(Nc1ccc(C(=O)O)c(O)c1)c1ccccc1 ; what normalized growth value has been reported?
Response: 0.989

----------
- Protocol summary: chemical genetic growth profiling, strain panel (AID 1159580)
- Study conditions: S. cerevisiae deletion strains, growth OD, locus YPL204W, strain HRR25, stronger effect = lower value
About 2,000 (36%) of roughly 5,500 compounds were called active. About 18% were inconclusive and are not listed. The list shows a part of the results.
Quick reference for normalized growth among some compounds

Below are worked cases with known answers.
Compound	normalized growth
C=CCc1c(CCC)nc(-c2ccccn2)[nH]c1=O	0.856 (inactive)
COc1cccc(NC(=S)NC2CC(C)CC(C)(C)C2)c1 (stereo unspecified)	0.949 (inactive)

Query: Suppose we examine the compound Brc1ccc2[nH]c3c(c2c1)CCC3 ; what normalized growth value has been reported?
Response: 0.642 (active)

Query: Suppose we examine the compound S=C(NNC(=S)NC1CC2C=CC1C2)Nc1ccc(Br)c(Cl)c1 (stereo unspecified) ; what normalized growth value has been reported?
Response: 0.939 (inactive)

Query: Suppose we examine the compound S=C(Nc1ccc(Cl)cc1)SCc1c(Cl)cccc1Cl ; what normalized growth value has been reported?
Response: 0.939 (inactive)

Query: Suppose we examine the compound CSc1n[nH]c(-c2cc(C(F)(F)F)cc(C(F)(F)F)c2)n1 ; what normalized growth value has been reported?
Response: 0.864 (inactive)

----------
Quick reference for normalized growth among some compounds
- Protocol summary: chemical genetic growth profiling, strain panel (AID 1159580);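 note: tested at 20 µM; growth read once vehicle control cultures reached saturation at 30 °C; 1 = growth at the plate median or of vehicle wells; lower values mean less growth of the strain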
- Study conditions: S. cerevisiae deletion strains, growth OD, locus YJR043C, strain POL32, stronger effect = lower value
About 2,000 (36%) of roughly 5,500 compounds were called active. About 18% were inconclusive and are not listed. The list shows a part of the results.

Query: Suppose we examine the compound OC(CCN1CCCCC1)(c1ccccc1)C1CCCCC1 (stereo not drawn) ; what normalized growth value has been reported?
Response: 1.01 (inactive)

Query: Suppose we examine the compound Fc1ccc(C(c2ccccc2)(c2ccccc2F)n2ccnc2)cc1 (stereo not drawn) ; what normalized growth value has been reported?
Response: 0.0763 (active)

Query: Suppose we examine the compound Cc1csc2ccc(Cl)cc12 ; what normalized growth value has been reported?
Response: 1 (inactive)

Query: Suppose we examine the compound Cc1cc(=O)[nH]c(-c2ccccn2)n1 ; what normalized growth value has been reported?
Response: 1.01 (inactive)

----------
- Protocol summary: chemical genetic growth profiling, strain panel (AID 1159580);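 note: tested at 20 µM; growth read once vehicle control cultures reached saturation at 30 °C; 1 = growth at the plate median or of vehicle wells; lower values mean less growth of the strain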
- Study conditions: S. cerevisiae deletion strains, growth OD, strain wtn01, stronger effect = lower value
The whole screen tested about 5,500 compounds, of which about 2,000 (36%) were called active. Roughly 18% stayed inconclusive and do not appear here. The list shows a part of the results.
Parameter measured: normalized growth

Below are worked cases with known answers.
Compound	normalized growth
CC(C)=CCCC1(C)C=Cc2c(O)c3c(c(CC=C(C)C)c2O1)OC12C(=CC4CC1C(C)(C)OC2(C/C=C(\C)C(N)=O)C4=O)C3=O (configuration not stated)	0.937 (inactive)
CNC(=O)O/N=C\C(C)(C)SC	0.997 (inactive)
O=c1cc(CO)occ1O	1.01 (inactive)
Cc1ccc(S(=O)(=O)NC(=O)NN2CC3CCCC3C2)cc1 (configuration not stated)	1 (inactive)
COc1cc(C(=O)O[C@H]2CC[C@@]3(C)[C@@H]4CC[C@H]5[C@]6(O)C[C@H](O)[C@@]7(O)[C@@H](CN8C[C@@H](C)CC[C@H]8[C@@]7(C)O)[C@]6(O)C[C@@]53O[C@]24O)cc(OC)c1OC	1.04 (inactive)
CC1(C)CC[C@]2(C(=O)O)CC[C@]3(C)C(=CCC4[C@@]5(C)CC[C@@H](O)C(C)(C)C5CC[C@]43C)C2C1 (some centres not stated)	1 (inactive)
CC(C)CC(N(C)C)C1(c2ccc(Cl)cc2)CCC1 (configuration not stated)	1.03 (inactive)
Nc1c2c(nc3ccccc13)CCCC2O (configuration not stated)	0.993 (inactive)

Query: Suppose we examine the compound Cc1cc(C(C)(C)C)c(O)c(C(C)(C)C)c1 ; what normalized growth value has been reported?
Response: 0.938 (inactive)

Query: Suppose we examine the compound COC(=O)Nc1nc2ccc(C(=O)c3ccccc3)cc2[nH]1 ; what normalized growth value has been reported?
Response: 0.983 (inactive)

Query: Suppose we examine the compound C[C@@H]1CC[C@H]2[C@@H](C)C(=O)O[C@@H]3O[C@@]4(C)CC[C@@H]1[C@]32OO4 ; what normalized growth value has been reported?
Response: 0.818 (active)

Query: Suppose we examine the compound CC(C)(Sc1cc(C(C)(C)C)c(O)c(C(C)(C)C)c1)Sc1cc(C(C)(C)C)c(O)c(C(C)(C)C)c1 ; what normalized growth value has been reported?
Response: 1.02 (inactive)

Query: Suppose we examine the compound Cc1ccnc(NS(=O)(=O)c2ccc(N)cc2)n1 ; what normalized growth value has been reported?
Response: 1.02 (inactive)

Query: Suppose we examine the compound CCOP(=S)(OCC)Oc1nc(Cl)c(Cl)cc1Cl ; what normalized growth value has been reported?
Response: 0.991 (inactive)

Query: Suppose we examine the compound CC(=O)NC(C(=O)O)C(C)(C)SN=O (configuration not stated) ; what normalized growth value has been reported?
Response: 1.01 (inactive)

Query: Suppose we examine the compound C/C=C(/C)C(=O)OC1CCC2(C)C3CCC4C5(O)CC(O)C6(O)C(CN7CC(C)CCC7C6(C)O)C5(O)CC42OC13O (configuration not stated) ; what normalized growth value has been reported?
Response: 0.949 (inactive)

Query: Suppose we examine the compound N=C(N)c1ccc(OCCCCCOc2ccc(C(=N)N)cc2)cc1 ; what normalized growth value has been reported?
Response: 0.891 (active)

----------
Quick reference for normalized growth among some compounds
- Protocol summary: chemical genetic growth profiling, strain panel (AID 1159580);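 note: tested at 20 µM; growth read once vehicle control cultures reached saturation at 30 °C; 1 = growth at the plate median or of vehicle wells; lower values mean less growth of the strain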
- Study conditions: S. cerevisiae deletion strains, growth OD, locus YOR106W, strain vam3, stronger effect = lower value
Out of some 5,500 compounds screened, about 2,000 (36%) were called active. About 18% were inconclusive and are not listed. The list shows a part of the results.
Reply: number alone, nothing else.

Below are worked cases with known answers.
Compound	Parameter measured	Reported result
N=C(N)c1ccc(OCCCCCOc2ccc(C(=N)N)cc2)cc1	normalized growth	0.997
Nc1c2ccccc2nc2ccccc12 (tested in a mixture with another compound)	normalized growth	0.529
O=C1C(O)=C(O)C(=O)C(O)=C1O	normalized growth	1.02
Cc1cc(-n2c(=O)[nH]c(=O)n(C)c2=O)ccc1Oc1ccc(SC(F)(F)F)cc1	normalized growth	0.424
CC1OC(=O)C(C(C)C)NC(=O)C(C(C)C)OC(=O)C(C(C)C)NC(=O)C(C)OC(=O)C(C(C)C)NC(=O)C(C(C)C)OC(=O)C(C(C)C)NC(=O)C(C)OC(=O)C(C(C)C)NC(=O)C(C(C)C)OC(=O)C(C(C)C)NC1=O (stereo unspecified)	normalized growth	0.331

Now, please, on to the next compound.
Query: Suppose we examine the compound Nc1c2c(nc3ccccc13)CCCC2 ; what normalized growth value has been reported?
Response: 0.997

Source of measurements: PubChem BioAssay AID1159580
